System: Dendritic cells + T cells + CD3/CD28 beads (IL-2 production)
Method: CRS assay: IL2 ELISA of supernatant from dendritic cells + T cells + CD3/CD28 beads
Format: cell-based
Conditions: human PBMC-derived dendritic cells, 1 h compound pre-incubation, T cells with CD3/CD28 beads overnight; IL-2 in supernatant
Test Readout: IC50 (µM)

[[record]]
structure_smiles = "COc1cc(Nc2ncc(F)c(Nc3ccc4c(n3)NC(=O)C(C)(C)O4)n2)cc(OC)c1OC"
u = "µM"
experimental_value = 3.14

